Experiment: Compound was evaluated for mitogenic inhibition against Swiss 3T3 murine fibroblast cells.
Residues, ends and D or L forms follow the SMILES beside them. *: point of attachment. X11 = CCCCC[C@@H](CC(C)C)N*; X4 = CCCCCC[C@H](CC(C)C)N*; X6 = CCC[C@H](CC(C)C)N*
Reported Property: IC50 (nM)
# number only, unit nM dropped from output

CCCCC[C@@H](CC(C)C)NC(=O)[C@H](Cc1cnc[nH]1)NC(=O)CNC(=O)[C@@H](NC(=O)[C@H](C)NC(=O)[C@H](Cc1c[nH]c2ccccc12)NC(=O)[C@H](Cc1cnc[nH]1)NC(C)=O)C(C)C (Ac-HWAVGH-X11) | 22
CCCCCC[C@H](CC(C)C)NC(=O)[C@H](Cc1cnc[nH]1)NC(=O)CNC(=O)[C@@H](NC(=O)[C@H](C)NC(=O)[C@H](Cc1c[nH]c2ccccc12)NC(=O)[C@H](Cc1cnc[nH]1)NC(C)=O)C(C)C (Ac-HWAVGH-X4) | 7

Exercise: # return recorded IC50 for input CCC[C@H](CC(C)C)NC(=O)[C@H](Cc1cnc[nH]1)NC(=O)CNC(=O)[C@@H](NC(=O)[C@H](C)NC(=O)[C@H](Cc1c[nH]c2ccccc12)NC(=O)[C@H](Cc1cnc[nH]1)NC(C)=O)C(C)C (Ac-HWAVGH-X6)
Key: 10

----------
Form field: pIC50 (one value per entry).
Experiment: Compound was evaluated for mitogenic inhibition against Swiss 3T3 murine fibroblast cells.
Non-standard residues stand in square brackets, D forms with d. Residues, ends and D or L forms follow the SMILES beside them. *: point of attachment. Leu(ol) = CC(C)C[C@H](N)CO; X3 = COC[C@H](CC(C)C)N*; X7 = CCCC(CCC)N*
In textbook form, pIC50 equals minus log to base ten of the concentration in mol/L.

Consider the following illustrative entries.
CCCC(CCC)NC(=O)[C@H](Cc1cnc[nH]1)NC(=O)CNC(=O)[C@@H](NC(=O)[C@H](C)NC(=O)[C@H](Cc1c[nH]c2ccccc12)NC(=O)[C@H](Cc1cnc[nH]1)NC(C)=O)C(C)C (Ac-HWAVGH-X7) | 7.10
CCOC(=O)[C@H](CC(C)C)NC(=O)[C@H](Cc1c[nH]cn1)NC(=O)CNC(=O)[C@@H](NC(=O)[C@H](C)NC(=O)[C@H](Cc1c[nH]c2ccccc12)NC(=O)[C@H](Cc1c[nH]cn1)NC(C)=O)C(C)C (Ac-HWAVGHL-OEt) | 7.70
COC[C@H](CC(C)C)NC(=O)[C@H](Cc1c[nH]cn1)NC(=O)CNC(=O)[C@@H](NC(=O)[C@H](C)NC(=O)[C@H](Cc1c[nH]c2ccccc12)NC(=O)[C@H](Cc1c[nH]cn1)NC(C)=O)C(C)C (Ac-HWAVGH-X3) | 7.04

Below: the item to evaluate.
Exercise: # return recorded pIC50 for input CC(=O)N[C@@H](Cc1c[nH]cn1)C(=O)N[C@@H](Cc1c[nH]c2ccccc12)C(=O)N[C@@H](C)C(=O)N[C@H](C(=O)NCC(=O)N[C@@H](Cc1c[nH]cn1)C(=O)N[C@H](CO)CC(C)C)C(C)C (Ac-HWAVGH[Leu(ol)])
Key: 6.52

----------
Assay: Compound was evaluated for mitogenic inhibition against Swiss 3T3 murine fibroblast cells.
Residues, ends and D or L forms follow the SMILES beside them. *: point of attachment. NH(2-Me-nonan-4R-yl) = CCCCC[C@H](CC(C)C)N*; X8 = CCCC[C@@H](CC(C)C)N*; X9 = CCC[C@@H](CC(C)C)N*; Piv = CC(C)(C)C(=O)*
Reported Property: IC50 (nM)
# number only, unit nM dropped from output

Consider the following illustrative entries.
CCCC[C@@H](CC(C)C)NC(=O)[C@H](Cc1c[nH]cn1)NC(=O)CNC(=O)[C@@H](NC(=O)[C@H](C)NC(=O)[C@H](Cc1c[nH]c2ccccc12)NC(=O)[C@H](Cc1c[nH]cn1)NC(C)=O)C(C)C (Ac-HWAVGH-X8) | 6
CCCCC[C@H](CC(C)C)NC(=O)[C@H](Cc1cnc[nH]1)NC(=O)CNC(=O)[C@@H](NC(=O)[C@H](C)NC(=O)[C@H](Cc1c[nH]c2ccccc12)NC(=O)[C@H](Cc1cnc[nH]1)NC(=O)C(C)(C)C)C(C)C (Piv-HWAVGH-{NH(2-Me-nonan-4R-yl)}) | 0.6
CCC[C@@H](CC(C)C)NC(=O)[C@H](Cc1cnc[nH]1)NC(=O)CNC(=O)[C@@H](NC(=O)[C@H](C)NC(=O)[C@H](Cc1c[nH]c2ccccc12)NC(=O)[C@H](Cc1cnc[nH]1)NC(C)=O)C(C)C (Ac-HWAVGH-X9) | 35

Below: the item to evaluate.
Exercise: # return recorded IC50 for input CCCCC[C@H](CC(C)C)NC(=O)[C@H](Cc1cnc[nH]1)NC(=O)CNC(=O)[C@@H](NC(=O)[C@H](C)NC(=O)[C@H](Cc1c[nH]c2ccccc12)NC(=O)[C@H](Cc1cnc[nH]1)NC(C)=O)C(C)C (Ac-HWAVGH-{NH(2-Me-nonan-4R-yl)})
Key: 4
